These measurements were taken from paper PMC10893172.

biological target: SARS-CoV-2 papain-like protease (PL^pro) (Severe acute respiratory syndrome coronavirus 2); assay: biochemical
endpoint_label: IC50 (µM)
Answers are plain numbers, in µM.

Ask: Lab note: need IC50 with SARS-CoV-2 papain-like protease (PL^pro) (Severe acute respiratory syndrome coronavirus 2) for entry O=C(N/N=C/c1cccc(OC2CSC2)c1)c1ccccc1O , please look it up.
Result: 328
